meta.source: the supplement of paper PMC3937590

I'd appreciate it if you could supply -log10 GI50 values for the items below.
Tested on: MCF10F
Assay: -log10 GI50 (growth inhibition 50%) (-log10(M)); higher = more potent growth inhibition
One number for each entry.

[
  {
    "COMPOUND": "CC(=O)O[C@H]1C(=O)[C@@]2(C)[C@H]([C@H](OC(=O)c3ccccc3)[C@]3(O)C[C@H](OC(=O)[C@H](O)[C@@H](NC(=O)c4ccccc4)c4ccccc4)C(C)=C1C3(C)C)[C@]1(OC(C)=O)CO[C@@H]1C[C@@H]2O [Paclitaxel]",
    "TEST SYSTEM": "MCF10F",
    "READOUT TYPE": "-log10 GI50",
    "RECORDED VALUE": 8.08
  },
  {
    "COMPOUND": "COC1=C2C[C@@H](C)C[C@H](OC)[C@H](O)[C@@H](C)/C=C(\\C)[C@H](OC(N)=O)[C@@H](OC)/C=C\\C=C(/C)C(=O)NC(=CC1=O)C2=O [Geldanamycin]",
    "TEST SYSTEM": "MCF10F",
    "READOUT TYPE": "-log10 GI50",
    "RECORDED VALUE": 8.14
  },
  {
    "COMPOUND": "O=C(CCCCCCC(=O)Nc1ccccc1)NO [Vorinostat]",
    "TEST SYSTEM": "MCF10F",
    "READOUT TYPE": "-log10 GI50",
    "RECORDED VALUE": 3.08
  },
  {
    "COMPOUND": "COc1cc2ncnc(Nc3ccc(F)c(Cl)c3)c2cc1OCCCN1CCOCC1 [Gefitinib]",
    "TEST SYSTEM": "MCF10F",
    "READOUT TYPE": "-log10 GI50",
    "RECORDED VALUE": 6.16
  },
  {
    "COMPOUND": "O=C(c1ccc(Nc2nccc(-c3cc4ccccc4s3)n2)cc1)N1CCC(N2CCCC2)CC1 [IKK 16]",
    "TEST SYSTEM": "MCF10F",
    "READOUT TYPE": "-log10 GI50",
    "RECORDED VALUE": 5.37
  }
]

Consider the additional compound presented here.
Quick one: -log10 GI50 for COc1cc([C@@H]2c3cc4c(cc3[C@@H](O[C@@H]3O[C@@H]5CO[C@@H](C)O[C@H]5[C@H](O)[C@H]3O)[C@H]3COC(=O)[C@H]23)OCO4)cc(OC)c1O [Etoposide] ?
6.13
